Overview of recorded inhibition for various molecules
biological target: Tyrosine-protein kinase SYK (Homo sapiens); conditions: at 1 µM
Description: GSK_PKIS: SYK mean inhibition at 1 uM [Nanosyn]
measured-metric: inhibition (%)

1) Fc1cccc(COc2ccc(Nc3ncnc4sc(-c5ccco5)cc34)cc2Cl)c1	-6.92
2) Nc1ncc(-c2cccc(S(N)(=O)=O)c2)c2scc(-c3ccc(F)c(Cl)c3)c12	-4.44
3) Nc1nc(-c2cccc(Cl)c2)c(-c2ccc3ncccc3n2)s1	-0.99
4) O=C(Nc1n[nH]c2cc(-c3ccc(F)cc3)ccc12)C1CC1	1.05
5) CC(=O)Nc1cccc(C#Cc2cncnc2Nc2ccc(OCc3cccc(F)c3)c(Cl)c2)c1	0.71
6) CCNC(=O)O[C@H]1CN[C@H](C#Cc2cc3ncnc(Nc4ccc(OCc5cccc(F)c5)c(Cl)c4)c3s2)C1	0.53
7) COc1cc(Nc2nccc(Nc3ccc4c(C)n[nH]c4c3)n2)cc(OC)c1OC	42.8
8) CCN1CCC(CC(=O)Nc2n[nH]c3nnc(-c4cccc(F)c4F)cc23)CC1	-2.27
